A collection of binders and their measured Kd
Molecular target: T1, EsCas13d, nuclease-dead (Eubacterium siraeum, UniProt B0MS50, R295A;H300A;R849A;H854A)
T1 sequence: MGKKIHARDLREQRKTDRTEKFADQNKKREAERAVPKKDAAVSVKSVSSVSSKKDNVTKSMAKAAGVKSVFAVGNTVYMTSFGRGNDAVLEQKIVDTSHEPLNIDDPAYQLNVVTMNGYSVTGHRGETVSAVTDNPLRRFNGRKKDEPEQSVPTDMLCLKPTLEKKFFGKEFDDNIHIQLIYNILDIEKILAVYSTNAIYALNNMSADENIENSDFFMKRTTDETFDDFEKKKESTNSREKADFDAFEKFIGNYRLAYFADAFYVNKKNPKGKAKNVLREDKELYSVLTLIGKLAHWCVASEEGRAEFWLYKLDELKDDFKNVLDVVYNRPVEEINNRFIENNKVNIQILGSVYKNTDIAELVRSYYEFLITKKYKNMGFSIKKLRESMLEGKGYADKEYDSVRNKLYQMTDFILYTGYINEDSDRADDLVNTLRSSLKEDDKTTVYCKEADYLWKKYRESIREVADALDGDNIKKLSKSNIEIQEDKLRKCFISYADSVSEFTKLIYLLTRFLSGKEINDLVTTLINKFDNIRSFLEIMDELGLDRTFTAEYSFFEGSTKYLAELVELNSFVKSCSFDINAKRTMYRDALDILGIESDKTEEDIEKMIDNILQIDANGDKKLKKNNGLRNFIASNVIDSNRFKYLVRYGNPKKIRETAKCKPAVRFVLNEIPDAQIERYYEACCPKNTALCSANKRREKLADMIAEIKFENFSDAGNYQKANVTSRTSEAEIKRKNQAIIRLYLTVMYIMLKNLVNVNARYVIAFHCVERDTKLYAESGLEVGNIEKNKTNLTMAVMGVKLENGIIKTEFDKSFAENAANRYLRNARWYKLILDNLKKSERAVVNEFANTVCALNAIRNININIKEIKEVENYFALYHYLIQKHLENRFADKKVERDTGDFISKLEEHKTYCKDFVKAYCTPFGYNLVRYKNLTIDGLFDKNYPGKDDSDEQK
Assay: crRNA (strand 1, pre-loaded); Mg2+; 40 mM Tris-HCl pH 7.5, 150 mM NaCl, 6 mM MgCl2, 1 mM DTT, 0.1% Tween-20, 0.2 mg/ml BSA; 25 C; 10 min per concentration, then washed
Settings: tags: His6-TwinStrep-SUMO cleaved; N-terminal SNAP kept (SNAP-Surface 488); label: 3' end held by stalled T7 RNA polymerase
Write down the numeric answer in µM and omit the unit.

Answered cases to consult:
binder	experimental result
target 1 insC 3' of 12,insC 3' of 12 (mixed) RNA 1: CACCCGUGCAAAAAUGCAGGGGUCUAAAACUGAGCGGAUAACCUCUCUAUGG RNA 2: GGGAAUGGAUCCACAUCUACGAAUUCGUACCAUAGAGAGGCCUUAUCCGCUCACCGAGAUCGGAAGAGCACACGU	0.0183
target 1 insU 3' of 22,insA 3' of 11 (mixed) RNA 1: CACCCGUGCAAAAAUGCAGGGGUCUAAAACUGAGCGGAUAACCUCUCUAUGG RNA 2: GGGAAUGGAUCCACAUCUACGAAUUCGUACUCAUAGAGAGGUAUAUCCGCUCACCGAGAUCGGAAGAGCACACGU	0.066
target 1 insA 3' of 19,insC 3' of 3 (mixed) RNA 1: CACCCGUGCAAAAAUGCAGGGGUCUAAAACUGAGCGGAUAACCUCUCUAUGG RNA 2: GGGAAUGGAUCCACAUCUACGAAUUCGUACCAUAAGAGAGGUUAUCCGCUCCACCGAGAUCGGAAGAGCACACGU	0.0174

Now, please, on to the next binder.
Quick one: Kd of target 2 MT 5'PFS UAA 3'PFS UUU (mixed) RNA 1: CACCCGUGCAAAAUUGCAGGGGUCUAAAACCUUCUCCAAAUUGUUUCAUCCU RNA 2: GGGAAUGGAUCCACAUCUACGAAUUCUAAAGGAUGAAACAAUUUGGAGAAGUUUAGAUCGGAAGAGCACACGU ?
0.0134
